Let's look at some binders and their measured Efficiency (%) (proportion of FAM positive cells).
- Assay Target: asialoglycoprotein receptor (ASGPR) on HepG2 cells (human) (UniProt P07306)
- Sequence (P07306 whole entry, chain 1 of 2): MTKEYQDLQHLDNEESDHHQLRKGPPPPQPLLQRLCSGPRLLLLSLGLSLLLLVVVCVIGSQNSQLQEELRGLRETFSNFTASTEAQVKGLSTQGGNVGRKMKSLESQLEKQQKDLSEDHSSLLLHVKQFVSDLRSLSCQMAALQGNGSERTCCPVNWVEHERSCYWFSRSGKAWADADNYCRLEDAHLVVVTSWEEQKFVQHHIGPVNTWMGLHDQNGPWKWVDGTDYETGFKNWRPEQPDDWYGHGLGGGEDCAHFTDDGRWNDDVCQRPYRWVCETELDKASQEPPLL
- Sequence (P07307 whole entry, chain 2 of 2, further chain): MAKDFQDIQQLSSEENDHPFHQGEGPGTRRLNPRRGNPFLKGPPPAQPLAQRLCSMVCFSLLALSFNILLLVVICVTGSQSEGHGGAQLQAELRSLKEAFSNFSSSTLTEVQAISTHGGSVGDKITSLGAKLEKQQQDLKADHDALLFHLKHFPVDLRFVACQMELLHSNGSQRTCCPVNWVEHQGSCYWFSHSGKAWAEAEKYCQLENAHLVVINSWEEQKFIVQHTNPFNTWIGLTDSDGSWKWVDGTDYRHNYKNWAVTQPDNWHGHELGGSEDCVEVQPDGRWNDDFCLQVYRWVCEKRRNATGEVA
- Procedure Text: flow cytometry, % FAM-positive HepG2 cells after 24 h with 8 nM ligand
Square brackets hold non-standard residues; d marks the D form. Side chains are listed from the residue outwards. * marks the point of attachment. Gal‑1 = GalNAc linker: 5-(GalNAc-oxy)pentanoic acid (3-acetamido-4,5-diacetoxy-6-(acetoxymethyl)tetrahydropyran-2-yl-oxy)pentanoic acid; Gal‑3 = GalNAc linker: 4-(GalNAc-oxy)butanoic acid (3-acetamido-4,5-diacetoxy-6-(acetoxymethyl)tetrahydropyran-2-yl-oxy)butanoic acid; 5FAM = O=C1OC2(c3ccc(O)cc3Oc3cc(O)ccc32)c2ccc(C(=O)*)cc21; Linker2 = 6-aminohexyl amide linker; GalNAc = N-acetylgalactosamine
// unit must come after the numeric part

Check out these entries, answers already filled in.
Data request: Returns the measured Efficiency (%) (proportion of FAM positive cells) for the input binder. Input: cyclo(K([Gal‑1-GalNAc])[dE]([Linker2-5FAM])K([Gal‑1-GalNAc])GK([Gal‑1-GalNAc])G) [5-FAM-CPMB-0031]
Data returned: 44.2%

Data request: Returns the measured Efficiency (%) (proportion of FAM positive cells) for the input binder. Input: KEKGKG (head-to-tail cyclic; D-Glu; each Lys side chain carries GalNAc via linker Gal-5; D-Glu side chain carries Linker2 with 5-FAM) [5-FAM-CPMB-0035]
Data returned: 63.2%

Data request: Returns the measured Efficiency (%) (proportion of FAM positive cells) for the input binder. Input: KEKGKG (head-to-tail cyclic; D-Lys at the three Lys positions and D-Glu; each D-Lys side chain carries GalNAc via linker Gal-5; D-Glu side chain carries Linker2 with 5-FAM) [5-FAM-CPMB-0025]
Data returned: 30%

Moving on to another binder below.
Data request: Returns the measured Efficiency (%) (proportion of FAM positive cells) for the input binder. Input: cyclo(K([Gal‑3-GalNAc])[dE]([Linker2-5FAM])K([Gal‑3-GalNAc])GK([Gal‑3-GalNAc])G) [5-FAM-CPMB-0033]
Data returned: 34.5%
